# Test system: KM12 colon
# Protocol text: NCI tumour cell line growth inhibition, 48 h
Observable: TGI (µM)
// return numeric value only (unit: µM, not printed)

Sample answers from the record:
1) Cc1ccc(-c2nc3sc(C)cn3c2/C=C2\C(=O)Nc3ccc(Cl)cc32)cc1
48.5
2) COc1ccc(-c2[nH]ncc2Nc2cc(OC)c(OC)c(OC)c2)cc1
22.7
3) Cn1cc2c3ccccc3nc-2c2ccccc21
6.78
4) O=C1Nc2ccc(Br)cc2/C1=N/N1C(=O)C(=O)N(C2CCCCC2)C1=S
14.6
5) CC(=O)c1c(C)c2cnc(Nc3ccc(N4CCNCC4)cn3)nc2n(C2CCCC2)c1=O
13.9

I would be grateful if you could share the reported TGI for `CCCCCCCCCCCC[N+]12CC[N+](C)(CC1)CC2` .
20.7

Again, but for `CCN(C(=O)N[C@H](C(=O)N[C@@H](CSC)C(=O)N[C@@H](C)C(=O)OC)C(C)C)c1ccccc1`
29.1

Again, but for `O=C(CI)Nc1ccc(Br)cc1`
10.7

Again, but for `Cn1c(I)c(C#C[Si](C)(C)C)c(=O)[nH]c1=O`
32.4

Again, but for `C(=N\Nc1ccc2ccccc2n1)/c1ccccn1`
16.2

* * *

# System: NCI-H522 lung
# Protocol text: NCI tumour cell line growth inhibition, 48 h
This listing pairs molecules with measured TGI.

Sample answers from the record:
1) N#CC1=C(N)OC2=C(CCOc3c2ccc2ccccc32)C1c1ccc(Br)cc1 (stereo not given)
> 100 µM
2) CSc1nc(SC)c2c(C)cn(COCCOC(=O)c3ccccc3)c2n1
> 100 µM
3) CC(C)(C)[Si](C)(C)OC1[C@@H](COC(=O)NC(=O)CCl)O[C@@H](n2cnc3c(N)ncnc32)[C@H]1O[Si](C)(C)C(C)(C)C (stereo not given in full)
0.312 µM
4) N#Cc1ccc(C2SCc3nc4ccccc4n32)cc1 (stereo not given)
75.8 µM
5) O=C(NC1C/C(=N/O)c2c(Br)sc(Br)c21)C(F)(F)F (stereo not given)
> 100 µM
6) NC1=Nc2ccccc2Sc2cccc(F)c21
> 100 µM
7) N#Cc1c(N)nc(N2CCOCC2)c(C#N)c1-c1c(Cl)cccc1Cl
8.38 µM
8) C=C1CCOC2(C(O)C(C)(O)CO)NC(=O)C1(O)NC2=O (stereo not given)
> 100 µM
9) COc1ccc(-c2cc(-c3ccc(Nc4ccnc5cc(Cl)ccc45)cc3)[nH]c(=O)c2C#N)cc1
> 100 µM

Then this molecule:
Field: TGI (NCI-H522 lung). Entry: `CC#COS(=O)(=O)c1ccc(C)cc1`
> 100 µM

* * *

# Test system: HCC-2998 colon
# Protocol text: NCI tumour cell line growth inhibition, 48 h; in the data active means GI50 below about 0.43 µM; inactive means the rest
Permitted responses: active, inactive

Examples from the recorded data:
1) CN(C)c1ccc2[nH]c3c(C(N)=O)cc(=O)c(=O)c=3oc2c1
inactive
2) CCC(=O)Nc1nnc(Cc2ccc(OC)c(OC)c2)s1
inactive

# fetch the recorded call for `CSc1ccc(C(=O)/C=C/c2ccc(Cl)cc2Cl)cc1` here
inactive

Again, but for CN(CCCCCl)P(=O)(OCc1ccc([N+](=O)[O-])o1)OCC1OC(n2cc([N+](=O)[O-])c(=O)[nH]c2=O)CC1O (centres undefined)
inactive

Again, but for `C[C@]12CCC(=O)C[C@@H]1CC[C@@H]1[C@@H]2CC[C@]2(C)[C@@H](OC(=O)N(CCCl)N=O)CC[C@@H]12`
inactive

Again, but for CCN1C(=O)N(CC)C2C1N=C(SC)N2/N=C/C=C/c1ccccc1OC (centres undefined)
active

Again, but for `COc1ccc(-c2c(-c3ccc(C#N)c(F)c3)nc(N3CCC(N)CC3)n(C)c2=O)cc1F`
inactive

Again, but for `COc1ccc(-c2[nH]ncc2Nc2cc(OC)c(OC)c(OC)c2)cc1`
inactive

Again, but for `COc1cc(C(=O)O[C@H](C(=O)NCCCCNC(=O)[C@@H](OC(=O)c2cc(OC)cc3c(C)cccc23)[C@]2(C)CO2)[C@]2(C)CO2)c2cccc(C)c2c1`
active

* * *

# Test system: OVCAR-5 ovarian
# Protocol text: NCI tumour cell line growth inhibition, 48 h
This listing pairs compounds with measured TGI.

I would be grateful if you could share the reported TGI for `COc1ccc([I+]c2ccc(OC)cc2)cc1` .
> 100 µM

Again, but for `CN(C)N=Nc1ccc(S(N)(=O)=O)cc1`
> 100 µM

Again, but for `NC(=O)/N=C/c1c(O)c2ccccc2oc1=O`
> 100 µM

Again, but for `Cc1ccnc(Nc2[nH]c(C(=O)c3ccc(Cl)cc3)c(N)c2C(=S)Nc2ccccc2)c1`
55.3 µM

Again, but for `CN1CCN(c2nc(N)c(Br)c(Cl)n2)CC1`
> 100 µM

* * *

This listing pairs compounds with measured TGI.
# Tested on: HCT-15 colon
# Protocol text: NCI tumour cell line growth inhibition, 48 h
// return numeric value only (unit: µM, not printed)

Sample answers from the record:
1) O=C(CCc1ccccc1)CC1OC(=O)C(Cl)=C1Cl (stereo unspecified)
30.3
2) O=C(NC1=C(Cl)C(=O)c2ccccc2C1=O)C(=O)C(C(=O)c1ccc2ccccc2c1)C1OC(=O)c2ccccc21 (stereo unspecified)
18
3) CCOC(=O)/C=C1/SC(=Nc2ccc(C#N)cc2)N(Cc2ccco2)C1=O
5.13
4) C(=N\NC1=NCCN1)/c1ccc2ccccc2c1
43.6
5) Cc1ccc(-c2nc3sc(C)cn3c2/C=C2\C(=O)Nc3ccc(Cl)cc32)cc1
34.4
6) Cc1ccc(S(=O)(=O)C2CC2(Cl)Cl)cc1 (stereo unspecified)
55.4
7) COc1ccc2c(c1)-c1c(c3cc(OC)ccc3n(CCN(C)C)c1=O)C2=O
13.1
8) COc1ccc(-c2oc3cc(O)c(OC)c(O)c3c(=O)c2O)cc1
52.2

I would be grateful if you could share the reported TGI for `Fc1ccc(Nc2nc(Nc3ccc(-c4nc5ccccc5[nH]4)cc3)c3cn[nH]c3n2)cc1` .
4.78

Again, but for `COc1cc(-c2ccc[nH]2)[nH]c1/C=C1\N=C(C)C(CC(=O)OCC(C)(C)C)=C1C`
1.12

Again, but for `O=C1/C(=C/c2ccc([N+](=O)[O-])o2)Oc2ccc(Cl)cc21`
2.05

Again, but for `COc1cccc(CCNc2c(C#N)c3n(c4ccccc4[n+]3C)c3ncccc23)c1`
3.74

Again, but for `O=C(CI)Nc1ccc(Br)cc1`
5.13

Again, but for `O=c1c2c3c(sc2nc2n1NC=NN2)CCCC3`
37.5

Again, but for `FC(F)(F)c1cccc(-c2[nH]ncc2-c2nnnn2-c2ccccc2)c1`
16.3

Again, but for `COc1ccc2c(c1)C(=O)c1c-2n(CCCN(C)C)c(=O)c2cc([N+](=O)[O-])ccc12`
1.29

Again, but for `Clc1ccc(-c2nc(NCc3ccco3)c3ccccc3n2)c(Cl)c1`
42.7

* * *

# Test system: DU-145 prostate
# Protocol text: NCI tumour cell line growth inhibition, 48 h
This listing pairs molecules with measured TGI.

Sample answers from the record:
1) NC1=Nc2ccccc2Sc2cccc(F)c21
> 100 µM
2) CSc1ccc(C(=O)/C=C/c2ccc(Cl)cc2Cl)cc1
89.2 µM
3) C(=N\Nc1ccc2ccccc2n1)/c1ccccn1
> 37.7 µM

I would be grateful if you could share the reported TGI for `CN(C)CCCn1c(Cn2nc3ccccc3n2)nc2cc(C(F)(F)F)ccc21` .
> 100 µM

Again, but for `NC(=S)N1N=C2c3ccccc3CCC[C@H]2[C@@H]1c1ccccc1`
9.27 µM

Again, but for `COc1ccc(C2=NNC(=O)c3ccccc3N2c2nc(-c3cccs3)nc3cc(OC)c(OC)cc23)cc1`
> 100 µM

* * *

# Test system: LXFL 529 NSCLC
# Protocol text: NCI tumour cell line growth inhibition, 48 h
Where a SMILES comes first, the peptide text is derived from it. [ ]: non-standard residue; d: D form. The star is where a group is joined. ξ: configuration not given here. NMeF = CN[CH](Cc1ccccc1)C(=O)O; ξNMe2Val = CC(C)C(C(=O)*)N(C)C; NMeV = CN[CH](C(=O)O)C(C)C; OtBu = CC(C)(C)O*
Observable: TGI

1. O=C1[C@@H]2C(c3ccccc3[N+](=O)[O-])=NO[C@@H]2C(=O)N1c1ccc(Cc2ccc(N3C(=O)[C@H]4C(c5ccccc5[N+](=O)[O-])=NO[C@H]4C3=O)cc2)cc1
> 100 µM
2. CC(C)C(C(=O)N(C)C(Cc1ccccc1)C(=O)N(C)C(C(=O)N(C)C(C(=O)N1CCCC1C(=O)OC(C)(C)C)C(C)C)C(C)C)N(C)C (stereo unspecified) (ξNMe2Val-[NMeF][NMeV][NMeV]P-OtBu; configuration not given here)
> 100 µM
3. CC(=O)OCC1OC(n2c(=S)n(-c3ccccc3)c(=O)c3cc(Br)ccc32)C(OC(C)=O)C1OC(C)=O (stereo unspecified)
> 100 µM
4. O=C(N/C(=C\c1ccc(/C=C(\NC(=O)c2ccccc2)c2nc3c(O)nc(S)nc3[nH]2)cc1)c1nc2c(O)nc(S)nc2[nH]1)c1ccccc1
> 100 µM
5. CC1(C)C(=O)/C=C\C(=O)C(C)(C)C(=O)/C=C\C(=O)C(C)(C)C2=CC=C(O2)C(C)(C)C(=O)/C=C\C1=O
6.14 µM

Then this compound:
I would be grateful if you could share the reported TGI for CC(=O)OCC1OC(N=[N+]=[N-])C(OC(C)=O)C(OC(C)=O)C1OC1OC(COC(C)=O)C(OC(C)=O)C(OC(C)=O)C1OC(C)=O (stereo unspecified) .
> 100 µM
